All figures here come from patent US10105357B2.

Would you kindly list The results of antibiotic drug inhibiting cancer cell lines (cell viability analysis), SAS for each of these molecules?
# System: SAS (Tongue squamous cell carcinoma)
# Test summary: Cell viability analysis, tongue cancer SAS
# Type: cell-based, human
# Run parameters: SAS; repeated experiment
Give only the figure.

Would you kindly share the measured The results of antibiotic drug inhibiting cancer cell lines (cell viability analysis), SAS for CC[C@H](C)[C@H]1O[C@]2(CC[C@@H]1C)C[C@@H]1C[C@@H](C/C=C(\C)[C@@H](O[C@H]3C[C@H](OC)[C@@H](O[C@H]4C[C@H](OC)[C@@H](O)[C@H](C)O4)[C@H](C)O3)[C@@H](C)/C=C/C=C3\CO[C@@H]4[C@H](O)C(C)=C[C@@H](C(=O)O1)[C@]34O)O2 [Ivermectin] ?
41.52

Same question for CCCSc1ccc2[nH]c(NC(=O)OC)nc2c1 [Albendazole (Albenza)] please.
36.08

Same question for C[C@@H]1[C@H](O)[C@@H](C)/C=C/C=C/CC/C=C/C=C/C=C/C=C/C(O[C@H]2O[C@H](C)[C@@H](O)[C@H](N)[C@@H]2O)CC2O[C@](O)(CC(O)C(O)CCC(O)CC(O)CC(O)CC(=O)O[C@H]1C)CC(O)C2C(=O)O (stereo partly shown) [Nystatin (Mycostatin), Nystatin] please.
97.09

Same question for CN[C@H](CC(C)C)C(=O)N[C@H]1C(=O)N[C@@H](CC(N)=O)C(=O)N[C@H]2C(=O)N[C@H]3C(=O)N[C@H](C(=O)N[C@H](C(=O)O)c4cc(O)cc(O)c4-c4cc3ccc4O)[C@H](O)c3ccc(c(Cl)c3)Oc3cc2cc(c3O[C@@H]2O[C@H](CO)[C@@H](O)[C@H](O)[C@H]2O[C@H]2C[C@](C)(N)[C@H](O)[C@H](C)O2)Oc2ccc(cc2Cl)[C@H]1O.Cl [Vancomycin HCl (Vancocin)] please.
102

----------
# Test system: AGS (Gastric Adenocarcinoma)
# Test summary: Cell viability analysis, gastric cancer AGS
# Assay type: cell-based, human
# Run parameters: AGS; repeated experiment
Would you kindly list The results of antibiotic drug inhibiting cancer cell lines (cell viability analysis), AGS for each of these compounds?
Give only the figure.

Would you kindly share the measured The results of antibiotic drug inhibiting cancer cell lines (cell viability analysis), AGS for CCCCCCCCCCCCCCCC[N+](C)(C)C.[Br-] [Cetrimonium Bromide] ?
20.83

Same question for CCCSc1ccc2[nH]c(NC(=O)OC)nc2c1 [Albendazole (Albenza)] please.
29.46

Same question for COC(=O)Nc1nc2cc(C(=O)c3ccc(F)cc3)ccc2[nH]1 [Flubendazole (Flutelmium)] please.
28.25

Same question for CC[C@H](C)[C@H]1O[C@]2(CC[C@@H]1C)C[C@@H]1C[C@@H](C/C=C(\C)[C@@H](O[C@H]3C[C@H](OC)[C@@H](O[C@H]4C[C@H](OC)[C@@H](O)[C@H](C)O4)[C@H](C)O3)[C@@H](C)/C=C/C=C3\CO[C@@H]4[C@H](O)C(C)=C[C@@H](C(=O)O1)[C@]34O)O2 [Ivermectin] please.
79.82

Same question for CN[C@H](CC(C)C)C(=O)N[C@H]1C(=O)N[C@@H](CC(N)=O)C(=O)N[C@H]2C(=O)N[C@H]3C(=O)N[C@H](C(=O)N[C@H](C(=O)O)c4cc(O)cc(O)c4-c4cc3ccc4O)[C@H](O)c3ccc(c(Cl)c3)Oc3cc2cc(c3O[C@@H]2O[C@H](CO)[C@@H](O)[C@H](O)[C@H]2O[C@H]2C[C@](C)(N)[C@H](O)[C@H](C)O2)Oc2ccc(cc2Cl)[C@H]1O.Cl [Vancomycin HCl (Vancocin)] please.
108.9

Same question for CC1(C)S[C@@H]2[C@H](NC(=O)[C@H](N)c3ccc(O)cc3)C(=O)N2[C@H]1C(=O)[O-].[Na+] [Amoxicillin sodium (Amox), Amoxicillin sodium] please.
128.2

----------
# System: AsPC-1
# Test summary: Cell viability analysis, pancreatic cancer AsPC-1
# Format: cell-based, human
# Run parameters: Homo sapiens, ASPC1, 72 h; AsPC-1; repeated experiment; read-out: The results of antibiotic drug inhibiting cancer cell lines (cell viability analysis), AsPC-1
Where a name gives a salt, the structure may show the parent alone.
Parameter: viability at 10 µM (%)
Lab book: enter the figure in %, no units written.

Request: viability at 10 µM, test system AsPC-1, entry CC(C)(C)CC(C)(C)c1ccc(O)c(Cc2ccc(Cl)cc2Cl)c1 [Clofoctol]
78.7

Same question for CC(C)c1nc(N(C)S(C)(=O)=O)nc(-c2ccc(F)cc2)c1/C=C/[C@@H](O)C[C@@H](O)CC(=O)O [Rosuvastatin calcium (Crestor), Rosuvastatin calcium] please.
80.2

Same question for COc1c(C)c2c(c(O)c1C/C=C(\C)CCC(=O)O)C(=O)OC2 [Mycophenolic (Mycophenolate), Mycophenolic] please.
48.1

Same question for CC(C)CN(C[C@@H](O)[C@H](Cc1ccccc1)NC(=O)O[C@H]1CCOC1)S(=O)(=O)c1ccc(N)cc1 [Amprenavir (Agenerase), Amprenavir] please.
90.4

Same question for CCc1cc2c(cc1CC)CC(NC[C@H](O)c1ccc(O)c3[nH]c(=O)ccc13)C2 [Indacaterol Maleate] please.
85.4

Same question for CCCCCCCCCCCCCCCC[N+](C)(C)CCN(Cc1ccc(OC)cc1)c1ncccn1 [Thonzonium Bromide] please.
27.6

Same question for CC[C@H](C)C(=O)O[C@H]1CCC=C2C=C[C@H](C)[C@H](CC[C@@H]3C[C@@H](O)CC(=O)O3)[C@H]21 [Mevastatin] please.
72.3

----------
# Test system: PC3 (p53−) (Prostate Adenocarcinoma)
# Test summary: Cell viability analysis, prostate cancer PC3
# Assay type: cell-based, human
# Run parameters: Homo sapiens, 72 h, PC-3; repeated experiment; read-out: The results of antibiotic drug inhibiting cancer cell lines (cell viability analysis), PC-3
Structures can show the parent of a compound that is named as a salt.
Would you kindly list viability at 10 µM for each of these molecules?
Lab book: enter the figure in %, no units written.

Request: viability at 10 µM, test system PC3 (p53−) (Prostate Adenocarcinoma), entry Cc1ccc2c(Cl)cc(Cl)c(O)c2n1 [Chlorquinaldol]
66.4

Same question for CC(C)c1nc(N(C)S(C)(=O)=O)nc(-c2ccc(F)cc2)c1/C=C/[C@@H](O)C[C@@H](O)CC(=O)O [Rosuvastatin calcium (Crestor), Rosuvastatin calcium] please.
95.7

Same question for Cc1cc(C(C)(C)C)cc(C)c1CC1=NCCN1 [Xylometazoline HCl] please.
116

Same question for CCC[S+]([O-])c1ccc2[nH]c(NC(=O)OC)nc2c1 (centres unmarked) [Albendazole Oxide (Ricobendazole), Albendazole Oxide] please.
78.7

Same question for COC(=O)Nc1nc2ccc([S+]([O-])c3ccccc3)cc2[nH]1 (centres unmarked) [Oxfendazole] please.
72.7

----------
# System: PC3 (p53−) (Prostate Adenocarcinoma)
# Test summary: Cell viability analysis, prostate cancer PC3
# Assay type: cell-based, human
# Run parameters: Homo sapiens, 72 h, read-out: cell viability (survival rate), PC3, drug 10 μM, 72 hours, WST-1, OD450 nm
Where a name gives a salt, the structure may show the parent alone.
Parameter: viability at 10 µM
Respond with the figure and its unit, in that order.

Would you kindly share the measured viability at 10 µM for CN(C/C=C/c1ccccc1)Cc1cccc2ccccc12 [Naftifine HCl] ?
109%

Same question for C[C@@H]1[C@H](O)[C@@H](C)/C=C/C=C/C=C/C=C/C=C/C=C/C=C/[C@H](O[C@@H]2O[C@H](C)[C@@H](O)[C@H](N)[C@@H]2O)C[C@@H]2O[C@](O)(C[C@@H](O)C[C@@H](O)[C@H](O)CC[C@@H](O)C[C@@H](O)CC(=O)O[C@H]1C)C[C@H](O)[C@H]2C(=O)O please.
66.9%

Same question for CCn1nc(C(=O)O)c(=O)c2cc3c(cc21)OCO3 please.
87%

Same question for Clc1ccc(COC(Cn2ccnc2)c2ccc(Cl)cc2Cl)c(Cl)c1 (centres unmarked) [Miconazole nitrate] please.
30.4%

Same question for O=c1[nH]c(=O)n([C@H]2C[C@H](O)[C@@H](CO)O2)cc1I please.
57.8%

Same question for COc1ccc2c(c1)c(CC(=O)OCC(=O)O)c(C)n2C(=O)c1ccc(Cl)cc1 [Acemetacin (Emflex), Acemetacin] please.
90.5%

Same question for CS(=O)(=O)c1ccc([C@@H](O)[C@@H](CF)NC(=O)C(Cl)Cl)cc1 please.
102%

Same question for Nc1nccs1 please.
93.8%

Same question for Oc1c(Cl)cc(Cl)c2cccnc12 please.
87.2%

Same question for OC(Cn1cncn1)(Cn1cncn1)c1ccc(F)cc1F please.
97.7%

Same question for CC1(C)S[C@@H]2[C@H](NC(=O)C(C(=O)O)c3ccccc3)C(=O)N2[C@H]1C(=O)O (some centres unmarked) [Carbenicillin disodium] please.
84.4%

Same question for COc1cc(/C=C/C(=O)CC(=O)/C=C/c2ccc(O)c(OC)c2)ccc1O please.
77.9%

Same question for CC[C@H]1OC(=O)[C@H](C)[C@@H](O[C@H]2C[C@@](C)(OC)[C@@H](O)[C@H](C)O2)[C@H](C)[C@@H](O[C@@H]2O[C@H](C)C[C@H](N(C)C)[C@H]2O)[C@](C)(O)C[C@@H](C)[C@@H]2N[C@@H](COCCOC)O[C@H]([C@H]2C)[C@]1(C)O please.
77.1%

Same question for NC1CCN(c2c(F)cc3c(=O)c(C(=O)O)cn(C4CC4)c3c2Cl)C1 (centres unmarked) please.
36.7%
